# Experimental Target: G-protein coupled receptor 55 (Homo sapiens)
# Assay Info: GPR55 antagonists blocking LPI-driven arrestin recruitment, primary screen, imaging, U2OS, beta-arrestin-GFP, LPI agonist (AID 2013);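 note: U2OS cells stably carrying GPR55 and arrestin-GFP stimulated by 5 µM LPI near EC80; imaged beta-arrestin-GFP aggregate spots per cell after agonist stimulation; plate controls were LPI-stimulated DMSO wells for no effect and DMSO wells without LPI for full effect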
# Conditions Used: U2OS GPR55 beta-arrestin-GFP translocation imaging, LPI antagonism; at 10 µM; stronger effect = higher value
The whole screen tested about 290,000 compounds, of which about 370 (0.13%) were called active. Only a selection was taken, and actives are over-represented in it overall. Potency and affinity values are given separately.
Measured Endpoint: inhibition

Provide each entry's inhibition from the list below.
1. Cc1cc(/C=C2\SC(N)=NC2=O)c(C)n1-c1ccccc1
2. CCOc1ccc(Cl)cc1CSc1n[nH]c(C)n1
3. CCOc1ccc(NC(=O)c2ccccc2OCC(=O)c2ccc(C)cc2)cc1
4. Cc1ccc(C(=O)C(C)OC(=O)c2ccccc2[N+](=O)[O-])cc1 (centres undefined)

Output:
-9.3% (inactive)
-12.3% (inactive)
-16% (inactive)
9.5% (inactive)

Provide each entry's inhibition from the list below.
1. Nc1ccc(N2CCCCC2)c(S(=O)(=O)Nc2ccc(Cl)cc2)c1
2. CCOC(=O)c1cc2c(=O)n3cccc(C)c3nc2n(C)c1=N
3. O=C(COc1ccccc1F)NCC(c1ccco1)N1CCCC1 (centres undefined)
4. CCOC(=O)c1cc2c(=O)n3ccccc3nc2n(Cc2ccccc2Cl)c1=N
5. [N-]=[N+]=NC[C@H](c1ccccc1)N1CCN(Cc2ccccc2)CCC1=O
6. O=C1NCCN(Cc2ccoc2)C1CC(=O)N(CCO)Cc1ccccc1 (centres undefined)

Output:
["16.6% (inactive)", "4.1% (inactive)", "24.1% (inactive)", "38.5% (inactive)", "9.8% (inactive)", "1.1% (inactive)"]

====

# Experimental Target: G-protein coupled receptor 55 (Homo sapiens) (UniProt Q9Y2T6)
# Sequence (Q9Y2T6 whole entry, looked up): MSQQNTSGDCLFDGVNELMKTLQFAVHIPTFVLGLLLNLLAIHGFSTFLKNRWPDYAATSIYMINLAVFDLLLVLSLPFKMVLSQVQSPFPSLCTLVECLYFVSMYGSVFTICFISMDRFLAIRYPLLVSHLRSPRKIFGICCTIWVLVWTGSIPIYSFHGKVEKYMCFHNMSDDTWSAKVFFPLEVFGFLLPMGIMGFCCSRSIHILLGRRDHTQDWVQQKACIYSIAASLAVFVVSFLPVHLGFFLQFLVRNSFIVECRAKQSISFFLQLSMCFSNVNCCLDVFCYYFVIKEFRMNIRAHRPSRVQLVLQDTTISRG
# Assay Info: GPR55 antagonists blocking LPI-driven arrestin recruitment, primary screen, imaging, U2OS, beta-arrestin-GFP, LPI agonist (AID 2013)
# Conditions Used: U2OS GPR55 beta-arrestin-GFP translocation imaging, LPI antagonism; at 10 µM; stronger effect = higher value
Hit rate of the full screen: of about 290,000 compounds, about 370 (0.13%) were called active. Shown is part of a subset that was picked to be rich in actives. Potency and affinity values are given separately.
Measured Endpoint: inhibition (%)
One number for each entry, in %.

Take a look at these entries with their results.
# Compound, Measured Endpoint, Reading
rows = [
    ("COC(=O)C1C(C(=O)OC)C1(c1ccccc1)c1ccccc1 (stereo not drawn)", "inhibition", 5.7),
    ("CC(C)(C)c1ccc(-c2c(C(=O)O)c(C(=O)O)c3n2CSC3)cc1", "inhibition", -9.4),
]

Input: Record request: inhibition value, item CCCCCCSc1nc(O)c(C2OC(=O)c3c2ccc(OC)c3OC)c(=O)n1CC (stereo not drawn)
Output: 2.6

====

Could you please report measured inhibition for the items listed next?
# Experimental Target: G-protein coupled receptor 55 (Homo sapiens) (UniProt Q9Y2T6)
# Assay Info: GPR55 antagonists blocking LPI-driven arrestin recruitment, primary screen, imaging, U2OS, beta-arrestin-GFP, LPI agonist (AID 2013);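 note: U2OS cells stably carrying GPR55 and arrestin-GFP stimulated by 5 µM LPI near EC80; imaged beta-arrestin-GFP aggregate spots per cell after agonist stimulation; plate controls were LPI-stimulated DMSO wells for no effect and DMSO wells without LPI for full effect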
# Conditions Used: U2OS GPR55 beta-arrestin-GFP translocation imaging, LPI antagonism; at 10 µM; stronger effect = higher value
In all, about 290,000 compounds went through this assay and about 370 (0.13%) were called active. For the sample, actives were picked, then their nearest neighbours and some compounds at random. Measured potencies and affinities stand elsewhere.
One number for each entry, in %.

Take a look at these entries with their results.
# Compound, Reading
data = [
    ("COc1ccccc1CNC(=O)CSc1nc2ccccc2c(=O)n1CCCN1CCOCC1", 1.4),
    ("CN1CCN(c2nc(C(N)=O)cc(-c3ccccc3)n2)CC1", -5.1),
    ("CC(C)CNC(=S)N1CCC(c2nc(-c3ccc(F)cc3)no2)CC1", 6.8),
    ("COc1ccc(Cl)cc1-n1c(C)cc(C=O)c1C", -3.7),
    ("Cc1cc(C)c(C)c(Oc2ncnc(N)c2[N+](=O)[O-])c1", 0.6),
]

Provide each entry's inhibition from the list below.
1. COc1ccc(S(=O)(=O)N(CC(=O)N2CCCCCC2)c2ccccc2OC)cc1
2. COC(=O)C1=C(C)N(Cc2ccccc2)C(=NCCCCO)N[C@H]1c1ccccc1
3. CC1(C)Cc2ccccc2-c2nc3ccccc3c(=O)n21

Output:
1. 9.8
2. -6.4
3. 0.3

Provide each entry's inhibition from the list below.
1. O=C(COC(=O)CCC(=O)c1cccs1)NC(=O)c1ccc(OC(F)F)cc1
2. N#Cc1ccccc1NC(=O)CN1CCOCC1
3. Cc1cc(C)nc(NNC(=O)NC2CCCCC2)n1
4. O=C1NC2(CCCCCC2)N=C1c1ccc(Br)cc1
5. CCCCOC(=O)CSC(=S)N(C)Cc1cccs1
6. NC(=O)c1sc2nnc(-c3ccccc3)c(-c3ccccc3)c2c1N
7. CCCC(=O)NC(c1ccccc1Cl)c1ccc2cccnc2c1O (stereo not given)

Output:
[6.3, 9.8, -10.6, 2.5, -12.9, 21.8, 11.4]

Provide each entry's inhibition from the list below.
1. Cc1cccc2c1CC(C)(C)NC2=C(C#N)C#N
2. Cc1ccc(CN2CCN(/N=C/C(Br)=C\c3ccccc3)CC2)cc1
3. Cc1ncsc1CCOC(=O)c1ccc(N2CCOCC2)c([N+](=O)[O-])c1
4. CCOC(=O)c1cc(C#N)c(Oc2cccc(C(F)(F)F)c2)nc1-c1ccccc1
5. O=C(CSc1nnc(C2CCCCC2)n1Cc1ccccc1)NCc1ccco1

Output:
1: 5; 2: -12; 3: -11; 4: 10; 5: -1.4

====

# Experimental Target: G-protein coupled receptor 55 (Homo sapiens)
# Assay Info: GPR55 antagonists blocking LPI-driven arrestin recruitment, primary screen, imaging, U2OS, beta-arrestin-GFP, LPI agonist (AID 2013);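 note: U2OS cells stably carrying GPR55 and arrestin-GFP stimulated by 5 µM LPI near EC80; imaged beta-arrestin-GFP aggregate spots per cell after agonist stimulation; plate controls were LPI-stimulated DMSO wells for no effect and DMSO wells without LPI for full effect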
# Conditions Used: U2OS GPR55 beta-arrestin-GFP translocation imaging, LPI antagonism; at 10 µM; stronger effect = higher value
Screen size: about 290,000 compounds; about 370 (0.13%) were called active. This is one part of a sample in which actives are shown more often than they occur. Measured potencies and affinities stand elsewhere.
Measured Endpoint: inhibition (%)
One number for each entry, in %.

# Molecule, Experimental Target, Measured Endpoint, Reading
records = [
    ("O=S(=O)(NCC1CCN(c2ccc(S(=O)(=O)N3CCOCC3)cc2)CC1)c1ccccc1", "G-protein coupled receptor 55 (Homo sapiens)", "inhibition", 0.7),
    ("CCOC(=O)c1c(CSc2nc(C)cc(C)c2C#N)n(C)c2cc(Br)c(OC(C)=O)cc12", "G-protein coupled receptor 55 (Homo sapiens)", "inhibition", 1.8),
    ("Cc1noc(C)c1CN(C(=S)NC1CC1)c1ccccc1", "G-protein coupled receptor 55 (Homo sapiens)", "inhibition", 4.1),
    ("CC(C)N1CCC(N2CCN(Cc3ccc(-c4ccc(Cl)cc4)o3)CC2CCO)CC1 (configuration not stated)", "G-protein coupled receptor 55 (Homo sapiens)", "inhibition", 0.6),
    ("CC(C)(C)OC(=O)[C@H](Cc1ccccc1)NC(=O)c1nc[nH]c1C(=O)N1CCN(C(=O)OC(C)(C)C)CC1", "G-protein coupled receptor 55 (Homo sapiens)", "inhibition", 4.7),
    ("CC(C(=O)Nc1cccnc1)n1cc([N+](=O)[O-])cn1 (configuration not stated)", "G-protein coupled receptor 55 (Homo sapiens)", "inhibition", 9.4),
    ("CN1C(=O)[C@H]2[C@@H](/C=C/c3ccccc3)N3C(=O)CN(CC4CC4)C(=O)[C@@]3(C)[C@H]2C1=O", "G-protein coupled receptor 55 (Homo sapiens)", "inhibition", 7.6),
    ("O=C(CCCn1c(=S)[nH]c2ccc(Br)cc2c1=O)N1CCN(c2ccccn2)CC1", "G-protein coupled receptor 55 (Homo sapiens)", "inhibition", 60.6),
]

Provide each entry's inhibition from the list below.
1. CCOC(=O)c1c(CN(C)C)n(-c2ccc(C)cc2)c2cc(Br)c(O)cc12
2. S=c1[nH]nc(-c2ccccc2)c2ccccc12
3. COc1ccc2c(c1)C(NC(C)=O)C(=O)N2CCc1ccccc1 (configuration not stated)
4. O=C(NCCc1ccccc1)C1COc2ccccc2O1 (configuration not stated)
5. COc1ccc(C(=O)N2N=C(c3cccs3)CC2c2ccccc2O)cc1 (configuration not stated)
6. C=CCCc1ccc(C#N)c(SCc2c(C(=O)OCC)c3cc(OC(C)=O)c(Br)cc3n2C)n1
7. Cc1cc(C(F)(F)F)nc(-n2cc(-c3ccccc3)nn2)n1
8. CCCCCCCCOC(=O)c1c(CSC(=N)N)n(C)c2cc(Br)c(OC(C)=O)cc12

Output:
-0.7
-20.4
6.6
5.5
54.1
-23.2
7.4
23.7

====

Could you please report measured inhibition for the items listed next?
# Experimental Target: G-protein coupled receptor 55 (Homo sapiens) (UniProt Q9Y2T6)
# Assay Info: GPR55 antagonists blocking LPI-driven arrestin recruitment, primary screen, imaging, U2OS, beta-arrestin-GFP, LPI agonist (AID 2013);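 note: U2OS cells stably carrying GPR55 and arrestin-GFP stimulated by 5 µM LPI near EC80; imaged beta-arrestin-GFP aggregate spots per cell after agonist stimulation; plate controls were LPI-stimulated DMSO wells for no effect and DMSO wells without LPI for full effect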
# Conditions Used: U2OS GPR55 beta-arrestin-GFP translocation imaging, LPI antagonism; at 10 µM; stronger effect = higher value
Screen size: about 290,000 compounds; about 370 (0.13%) were called active. Many of the other results were omitted from the sample, so actives are more common in it than they were. Potency and affinity values are given separately.
One number for each entry, in %.

Take a look at these entries with their results.
# Molecule, inhibition (%)
measured = [
    ("Fc1ccc(-c2csc(N3CCOCC3)n2)cc1", -10.5),
    ("O=C(COC(=O)C1CC2C=CC1C2)Nc1cccc(S(=O)(=O)N2CCCCC2)c1 (stereo not drawn)", -15.5),
    ("COc1cc(C2C(C#N)=C(N)Oc3c2c(-c2ccccc2)nn3-c2ccccc2)cc(OC)c1OC (stereo not drawn)", -13.1),
    ("Cc1c(NC(=O)CN2C(=O)NC(CCc3ccccc3)C2=O)c(=O)n(-c2ccccc2)n1C (stereo not drawn)", 13.9),
    ("COc1ccc(C2c3ccc4ccccc4c3Oc3ncn(Cc4ccco4)c(=N)c32)cc1OC (stereo not drawn)", 96.1),
    ("COc1cc(NS(=O)(=O)c2ccc(Nc3nc(-c4cccc([N+](=O)[O-])c4)cs3)cc2)nc(OC)n1", 0.2),
]

Provide each entry's inhibition from the list below.
1. N=c1c2c(ncn1CCN1CCOCC1)Oc1cc(O)ccc1C2c1ccccc1 (stereo not drawn)
2. Cc1cccc(C(=O)N(CCc2ccccc2)Cc2ccccc2)c1[N+](=O)[O-]

Output:
1: 16.4; 2: 14
